- Tested on: T1, recombinant human IL-6 (human, UniProt P05231 30-212)
- T1 construct: Flowed in solution over the captured antibodies
- T1 sequence (P05231 30-212 limits assumed): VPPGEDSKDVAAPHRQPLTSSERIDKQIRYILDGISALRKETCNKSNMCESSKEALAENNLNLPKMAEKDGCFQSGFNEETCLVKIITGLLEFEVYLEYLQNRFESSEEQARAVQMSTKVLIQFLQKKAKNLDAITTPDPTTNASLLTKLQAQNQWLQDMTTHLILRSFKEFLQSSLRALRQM
- Assay explanation: SPR (Biacore), supernatant IgG on Protein A, 25 C
- Method: Antibodies were captured on a Protein A chip (GE) by injecting 1:20 dilution of cell supernatant at 10 μL/min for 60 seconds. […] The sensor chip was regenerated by a 60 seconds injection of 10 mM Glycine pH 1.7 at flow rate of 50 μL/min. […] For this setup, 1 μg/mL of purified antibody was injected over a Protein A chip at 10 μL/min for 25-28 seconds. Data analysis for supernatant and purified samples were performed using BIAevaluation software (GE). […]
Overview of reported koff across a group of binders:
Give just the numeric value; s⁻¹ need not be written.

Worked examples, 5 binders total:
* anti-IL-6 antibody, heavy chain D62F, light chain WT (antibody, IgG1, V domains shown, Full IgG1 tested; V domains derived as in m2) VH: EVQLVESGGGLVQPGGSLRLSCAASGFTFSPFAMSWVRQAPGKGLEWVAKISPGGSWTYYSFTVTGRFTFSLDTSKSTAYLQMNSLRAEDTAVYYCARQLWGYYALDIWGQGTLVTVSS VL: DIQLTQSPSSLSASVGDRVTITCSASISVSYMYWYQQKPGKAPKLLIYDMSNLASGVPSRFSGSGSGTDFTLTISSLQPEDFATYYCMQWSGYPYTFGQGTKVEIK | 0.000147
* anti-IL-6 antibody, heavy chain F27G, light chain WT (antibody, IgG1, V domains shown, Full IgG1 tested; V domains derived as in m2) VH: EVQLVESGGGLVQPGGSLRLSCAASGGTFSPFAMSWVRQAPGKGLEWVAKISPGGSWTYYSDTVTGRFTFSLDTSKSTAYLQMNSLRAEDTAVYYCARQLWGYYALDIWGQGTLVTVSS VL: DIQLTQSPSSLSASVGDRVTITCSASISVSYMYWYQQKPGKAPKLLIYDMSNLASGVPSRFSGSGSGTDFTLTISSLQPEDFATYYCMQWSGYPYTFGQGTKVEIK | 0.000206
* anti-IL-6 antibody, heavy chain L106I, light chain WT (antibody, IgG1, V domains shown, Full IgG1 tested; V domains derived as in m2) VH: EVQLVESGGGLVQPGGSLRLSCAASGFTFSPFAMSWVRQAPGKGLEWVAKISPGGSWTYYSDTVTGRFTFSLDTSKSTAYLQMNSLRAEDTAVYYCARQLWGYYAIDIWGQGTLVTVSS VL: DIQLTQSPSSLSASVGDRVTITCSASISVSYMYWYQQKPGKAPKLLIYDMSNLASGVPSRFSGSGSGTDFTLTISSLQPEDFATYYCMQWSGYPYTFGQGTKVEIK | 0.000134
* anti-IL-6 antibody, heavy chain T63D, light chain WT (antibody, IgG1, V domains shown, Full IgG1 tested; V domains derived as in m2) VH: EVQLVESGGGLVQPGGSLRLSCAASGFTFSPFAMSWVRQAPGKGLEWVAKISPGGSWTYYSDDVTGRFTFSLDTSKSTAYLQMNSLRAEDTAVYYCARQLWGYYALDIWGQGTLVTVSS VL: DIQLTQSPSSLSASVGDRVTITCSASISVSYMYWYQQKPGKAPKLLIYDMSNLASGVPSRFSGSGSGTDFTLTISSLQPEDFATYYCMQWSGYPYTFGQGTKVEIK | 0.000174
* anti-IL-6 antibody, heavy chain T63Q, light chain WT (antibody, IgG1, V domains shown, Full IgG1 tested; V domains derived as in m2) VH: EVQLVESGGGLVQPGGSLRLSCAASGFTFSPFAMSWVRQAPGKGLEWVAKISPGGSWTYYSDQVTGRFTFSLDTSKSTAYLQMNSLRAEDTAVYYCARQLWGYYALDIWGQGTLVTVSS VL: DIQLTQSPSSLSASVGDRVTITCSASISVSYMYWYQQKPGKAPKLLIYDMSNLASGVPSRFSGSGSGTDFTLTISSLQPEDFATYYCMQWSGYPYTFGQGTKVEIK | 0.000184

### Prompt I am curious: what koff value has been reported for anti-IL-6 antibody, heavy chain T28Y, light chain WT (antibody, IgG1, V domains shown, Full IgG1 tested; V domains derived as in m2) VH: EVQLVESGGGLVQPGGSLRLSCAASGFYFSPFAMSWVRQAPGKGLEWVAKISPGGSWTYYSDTVTGRFTFSLDTSKSTAYLQMNSLRAEDTAVYYCARQLWGYYALDIWGQGTLVTVSS VL: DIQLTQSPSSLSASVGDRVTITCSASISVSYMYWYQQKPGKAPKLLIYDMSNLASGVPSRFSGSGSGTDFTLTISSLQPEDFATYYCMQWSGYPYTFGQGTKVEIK ?
### Response 0.000137

### Prompt I am curious: what koff value has been reported for anti-IL-6 antibody, heavy chain S30Y, light chain WT (antibody, IgG1, V domains shown, Full IgG1 tested; V domains derived as in m2) VH: EVQLVESGGGLVQPGGSLRLSCAASGFTFYPFAMSWVRQAPGKGLEWVAKISPGGSWTYYSDTVTGRFTFSLDTSKSTAYLQMNSLRAEDTAVYYCARQLWGYYALDIWGQGTLVTVSS VL: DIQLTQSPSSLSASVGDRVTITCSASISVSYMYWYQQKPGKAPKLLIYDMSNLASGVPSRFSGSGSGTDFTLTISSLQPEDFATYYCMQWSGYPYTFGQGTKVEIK ?
### Response 0.000122

### Prompt I am curious: what koff value has been reported for anti-IL-6 antibody, heavy chain T63E, light chain WT (antibody, IgG1, V domains shown, Full IgG1 tested; V domains derived as in m2) VH: EVQLVESGGGLVQPGGSLRLSCAASGFTFSPFAMSWVRQAPGKGLEWVAKISPGGSWTYYSDEVTGRFTFSLDTSKSTAYLQMNSLRAEDTAVYYCARQLWGYYALDIWGQGTLVTVSS VL: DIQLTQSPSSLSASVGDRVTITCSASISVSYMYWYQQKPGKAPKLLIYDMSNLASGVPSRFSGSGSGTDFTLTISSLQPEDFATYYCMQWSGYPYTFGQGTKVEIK ?
### Response 0.000169

### Prompt I am curious: what koff value has been reported for anti-IL-6 antibody, heavy chain F29H, light chain WT (antibody, IgG1, V domains shown, Full IgG1 tested; V domains derived as in m2) VH: EVQLVESGGGLVQPGGSLRLSCAASGFTHSPFAMSWVRQAPGKGLEWVAKISPGGSWTYYSDTVTGRFTFSLDTSKSTAYLQMNSLRAEDTAVYYCARQLWGYYALDIWGQGTLVTVSS VL: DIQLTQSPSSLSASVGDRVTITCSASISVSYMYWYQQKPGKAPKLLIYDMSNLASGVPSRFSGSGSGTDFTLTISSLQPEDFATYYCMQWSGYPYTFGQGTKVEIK ?
### Response 0.000135

### Prompt I am curious: what koff value has been reported for anti-IL-6 antibody, heavy chain T28A, light chain WT (antibody, IgG1, V domains shown, Full IgG1 tested; V domains derived as in m2) VH: EVQLVESGGGLVQPGGSLRLSCAASGFAFSPFAMSWVRQAPGKGLEWVAKISPGGSWTYYSDTVTGRFTFSLDTSKSTAYLQMNSLRAEDTAVYYCARQLWGYYALDIWGQGTLVTVSS VL: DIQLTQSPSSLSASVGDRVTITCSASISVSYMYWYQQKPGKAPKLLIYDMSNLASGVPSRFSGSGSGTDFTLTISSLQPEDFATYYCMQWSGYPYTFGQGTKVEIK ?
### Response 0.000139

### Prompt I am curious: what koff value has been reported for anti-IL-6 antibody, heavy chain T63G, light chain WT (antibody, IgG1, V domains shown, Full IgG1 tested; V domains derived as in m2) VH: EVQLVESGGGLVQPGGSLRLSCAASGFTFSPFAMSWVRQAPGKGLEWVAKISPGGSWTYYSDGVTGRFTFSLDTSKSTAYLQMNSLRAEDTAVYYCARQLWGYYALDIWGQGTLVTVSS VL: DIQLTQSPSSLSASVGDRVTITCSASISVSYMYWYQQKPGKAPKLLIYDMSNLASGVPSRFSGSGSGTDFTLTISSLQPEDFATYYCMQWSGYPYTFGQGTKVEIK ?
### Response 0.000209

Each recorded value in this set is attributed to patent US20240209076A1.
